Species on record: Rattus norvegicus
METHOD DESCRIPTION: Open TG-GATES - Regimen: Single
Type: toxicity, organism-based, Sprague-Dawley
Set-up: regimen Single, gender Male, age 6 weeks
ASSAY SETUP: in vivo, po, 100 mg/kg, 6 h, tissue Plasma, route gavage, dose level Low
I'd be grateful if you could share measured TBIL for these entries.
Answers are plain numbers, in mg/dL.

# per-item lookup of TBIL; items listed below
1. O=C(OC[C@H]1O[C@@H](OC(=O)c2cc(O)c(O)c(OC(=O)c3cc(O)c(O)c(O)c3)c2)[C@H](OC(=O)c2cc(O)c(O)c(OC(=O)c3cc(O)c(O)c(O)c3)c2)[C@@H](OC(=O)c2cc(O)c(O)c(OC(=O)c3cc(O)c(O)c(O)c3)c2)[C@@H]1OC(=O)c1cc(O)c(O)c(OC(=O)c2cc(O)c(O)c(O)c2)c1)c1cc(O)c(O)c(OC(=O)c2cc(O)c(O)c(O)c2)c1
2. CN/C(=N/CCSCc1nc[nH]c1C)NC#N
3. CNC(=C[N+](=O)[O-])NCCSCc1ccc(CN(C)C)o1
4. COC(=O)C1=C(C)NC(C)=C(C(=O)OC)C1c1ccccc1[N+](=O)[O-]
5. Cc1nnc2n1-c1ccc(Cl)cc1C(c1ccccc1Cl)=NC2

Result:
1: 0.5; 2: 0.1; 3: 0.1; 4: 0.042; 5: 0.062

---

Organism: Rattus norvegicus
METHOD DESCRIPTION: Open TG-GATES - Regimen: Single
Format: toxicity, organism-based, Sprague-Dawley
Design: regimen Single, gender Male, age 6 weeks
ASSAY SETUP: in vivo, po, 100 mg/kg, 9 h, tissue Blood, route gavage, dose level Low
QUANTITY NAME: MCV

[[record]]
compound = "O=C(OC[C@H]1O[C@@H](OC(=O)c2cc(O)c(O)c(OC(=O)c3cc(O)c(O)c(O)c3)c2)[C@H](OC(=O)c2cc(O)c(O)c(OC(=O)c3cc(O)c(O)c(O)c3)c2)[C@@H](OC(=O)c2cc(O)c(O)c(OC(=O)c3cc(O)c(O)c(O)c3)c2)[C@@H]1OC(=O)c1cc(O)c(O)c(OC(=O)c2cc(O)c(O)c(O)c2)c1)c1cc(O)c(O)c(OC(=O)c2cc(O)c(O)c(O)c2)c1 [TANNIC ACID]"
value = "66.5 fL"

[[record]]
compound = "CNC(=C[N+](=O)[O-])NCCSCc1ccc(CN(C)C)o1 [RANITIDINE]"
value = "63.3 fL"


# per-item lookup of MCV; items listed below
1. Cc1nnc2n1-c1ccc(Cl)cc1C(c1ccccc1Cl)=NC2 [TRIAZOLAM]
2. COC(=O)C1=C(C)NC(C)=C(C(=O)OC)C1c1ccccc1[N+](=O)[O-] [NIFEDIPINE]
3. CN/C(=N/CCSCc1nc[nH]c1C)NC#N [CIMETIDINE]

Result:
["63 fL", "63.3 fL", "64.3 fL"]

---

Species on record: Rattus norvegicus
METHOD DESCRIPTION: Open TG-GATES - Regimen: Daily Repeat
Type: toxicity, organism-based, Sprague-Dawley
Set-up: regimen Daily Repeat, gender Male, age 6 weeks
ASSAY SETUP: in vivo, po, 100 mg/kg, […], tissue Plasma, route gavage, dose level Low, time 7 day
I'd be grateful if you could share measured gamma-GTP for these entries.
Give bare numbers, in IU/L.

Example entries begin here.
[[record]]
compound = "COC(=O)C1=C(C)NC(C)=C(C(=O)OC)C1c1ccccc1[N+](=O)[O-] [NIFEDIPINE]"
value = 1

[[record]]
compound = "CNC(=C[N+](=O)[O-])NCCSCc1ccc(CN(C)C)o1 [RANITIDINE]"
value = 1.2


# per-item lookup of gamma-GTP; items listed below
1. O=C(OC[C@H]1O[C@@H](OC(=O)c2cc(O)c(O)c(OC(=O)c3cc(O)c(O)c(O)c3)c2)[C@H](OC(=O)c2cc(O)c(O)c(OC(=O)c3cc(O)c(O)c(O)c3)c2)[C@@H](OC(=O)c2cc(O)c(O)c(OC(=O)c3cc(O)c(O)c(O)c3)c2)[C@@H]1OC(=O)c1cc(O)c(O)c(OC(=O)c2cc(O)c(O)c(O)c2)c1)c1cc(O)c(O)c(OC(=O)c2cc(O)c(O)c(O)c2)c1 [TANNIC ACID]
2. Cc1nnc2n1-c1ccc(Cl)cc1C(c1ccccc1Cl)=NC2 [TRIAZOLAM]
3. CN/C(=N/CCSCc1nc[nH]c1C)NC#N [CIMETIDINE]
4. CCOc1ccc(NC(C)=O)cc1 [PHENACETIN]

Result:
1: 1.6; 2: 1.4; 3: 1.2; 4: 1

Origin of measurements: ChEMBL document CHEMBL3885861
